- Assayed target: bovine GRK5 (Bos taurus, UniProt P43249)
- Construct: when using full-length kinases as the receptor[37] instead of isolated kinase domains; made in house
- Sequence (P43249 whole entry, the tested form may be a part): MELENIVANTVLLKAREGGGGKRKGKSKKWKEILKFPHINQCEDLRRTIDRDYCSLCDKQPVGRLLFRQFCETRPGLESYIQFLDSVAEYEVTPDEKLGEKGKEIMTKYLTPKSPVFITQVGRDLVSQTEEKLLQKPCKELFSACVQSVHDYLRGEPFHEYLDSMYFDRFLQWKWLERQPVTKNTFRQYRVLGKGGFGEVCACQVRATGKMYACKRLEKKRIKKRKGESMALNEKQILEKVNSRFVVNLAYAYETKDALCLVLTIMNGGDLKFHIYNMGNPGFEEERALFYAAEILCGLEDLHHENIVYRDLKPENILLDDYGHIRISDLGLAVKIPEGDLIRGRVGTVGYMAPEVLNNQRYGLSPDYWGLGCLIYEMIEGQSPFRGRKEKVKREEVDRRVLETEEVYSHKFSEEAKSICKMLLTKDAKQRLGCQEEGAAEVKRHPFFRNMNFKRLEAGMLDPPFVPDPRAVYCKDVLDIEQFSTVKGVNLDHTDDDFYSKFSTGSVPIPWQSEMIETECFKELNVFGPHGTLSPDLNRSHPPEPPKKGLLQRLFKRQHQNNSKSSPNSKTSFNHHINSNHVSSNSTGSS
- Protocol details: Primary DSF inhibitor screen, GRK5
- Type: binding
- Study conditions: 10 μM compound, 2 μM kinase, relative to DMSO control; read-out: ΔTm, primary screen, GRK5
Overview of reported ΔTm at 10 µM across a group of compounds:

# Compound, Assayed target, ΔTm at 10 µM, °C
data = [
    ("CCCN1CCC=C(c2ccc(Nc3nc(Nc4ccccc4C(N)=O)c4cc[nH]c4n3)c(C)c2)C1 [GSK994854A]", "bovine GRK5 (Bos taurus, UniProt P43249)", 4.92),
    ("O=S(=O)(CCNCc1ccc(-c2ccc3ncnc(Nc4ccc(OCc5cccc(F)c5)c(Cl)c4)c3c2)o1)c1ccccc1 [GW633459A]", "bovine GRK5 (Bos taurus, UniProt P43249)", 3.27),
    ("CC1=C(C(=O)Nc2ccc3[nH]ncc3c2)C(c2ccc(F)cc2)NC(c2ccc(C(F)(F)F)nc2)=N1 (stereo not drawn) [GSK317354A]", "bovine GRK5 (Bos taurus, UniProt P43249)", 2.29),
    ("Cn1cc(C=C2C(=O)Nc3cccnc32)c2ccccc21 [GW441756X]", "bovine GRK5 (Bos taurus, UniProt P43249)", 2.82),
    ("NS(=O)(=O)c1ccc(NN=C2C(=O)Nc3ccc(C(=O)NCc4ccncc4)cc32)cc1 [GW300657X]", "bovine GRK5 (Bos taurus, UniProt P43249)", 3.89),
    ("Nc1nonc1-c1nc2cnccc2n1C1CC1", "bovine GRK5 (Bos taurus, UniProt P43249)", 2.86),
    ("CCCN1CCCC(c2ccc(Nc3nc(Nc4cc(F)ccc4C(N)=O)c4cc[nH]c4n3)c(OC)c2)C1 (stereo not drawn) [GSK1173862A]", "bovine GRK5 (Bos taurus, UniProt P43249)", 4.75),
    ("CC1=C(C(=O)Nc2ccc3[nH]nc(C)c3c2)C(c2ccc(C(F)(F)F)cc2)CC(=O)N1 (stereo not drawn) [GSK466314A]", "bovine GRK5 (Bos taurus, UniProt P43249)", 3.54),
    ("Cc1cc(O)cc(C)c1/C=C/c1cncc(C(=O)OC(C)(C)C)c1 [GW439255X]", "bovine GRK5 (Bos taurus, UniProt P43249)", 2.66),
    ("CNC(=O)c1ncccc1Nc1nc(Nc2cc3c(cc2OC)CCCN3C(=O)CN(C)C)nc2[nH]ccc12 [GSK2220400A]", "bovine GRK5 (Bos taurus, UniProt P43249)", 6.87),
    ("CS(=O)(=O)CCNCc1coc(-c2ccc3ncnc(Nc4ccc(OCc5ccccc5)cc4)c3c2)c1 [GW566221A]", "bovine GRK5 (Bos taurus, UniProt P43249)", 2.58),
    ("NS(=O)(=O)c1ccc(Nc2cc(-c3cccc(O)c3)n[nH]2)cc1 [GW831090X]", "bovine GRK5 (Bos taurus, UniProt P43249)", 2.96),
    ("NC(=O)c1sc(-n2cnc3ccc(C(F)(F)F)cc32)cc1OCc1ccccc1Br [GW853606X]", "bovine GRK5 (Bos taurus, UniProt P43249)", 4.43),
    ("O=c1cc(-c2ccc(O)cc2)oc2cc(O)cc(O)c12 [Apigenin, 4',5,7-Trihydroxyflavone]", "bovine GRK5 (Bos taurus, UniProt P43249)", 2.9),
    ("CS(=O)(=O)CCN(CC#N)Cc1ccc(-c2ccc3ncnc(Nc4ccc(OCc5cccc(F)c5)c(Cl)c4)c3c2)o1 [GW616030X]", "bovine GRK5 (Bos taurus, UniProt P43249)", 3.29),
    ("CCCN1CCC(Oc2cc(Nc3nc(Nc4cccc(F)c4C(N)=O)c4cc[nH]c4n3)c(OC)cc2Cl)CC1 [GSK1713088A]", "bovine GRK5 (Bos taurus, UniProt P43249)", 7.37),
    ("Fc1cccc(COc2ccc(Nc3ncnc4sc(-c5ccco5)cc34)cc2Cl)c1 [GSK969786A]", "bovine GRK5 (Bos taurus, UniProt P43249)", 2.11),
    ("CCS(=O)(=O)c1ccc(OC)c(Nc2ncc(-c3ccccc3Cl)o2)c1 [GW622055X]", "bovine GRK5 (Bos taurus, UniProt P43249)", 2.14),
]
